- study_system: rM4 receptors (Rattus norvegicus, UniProt P08485)
- Sequence (P08485 whole entry): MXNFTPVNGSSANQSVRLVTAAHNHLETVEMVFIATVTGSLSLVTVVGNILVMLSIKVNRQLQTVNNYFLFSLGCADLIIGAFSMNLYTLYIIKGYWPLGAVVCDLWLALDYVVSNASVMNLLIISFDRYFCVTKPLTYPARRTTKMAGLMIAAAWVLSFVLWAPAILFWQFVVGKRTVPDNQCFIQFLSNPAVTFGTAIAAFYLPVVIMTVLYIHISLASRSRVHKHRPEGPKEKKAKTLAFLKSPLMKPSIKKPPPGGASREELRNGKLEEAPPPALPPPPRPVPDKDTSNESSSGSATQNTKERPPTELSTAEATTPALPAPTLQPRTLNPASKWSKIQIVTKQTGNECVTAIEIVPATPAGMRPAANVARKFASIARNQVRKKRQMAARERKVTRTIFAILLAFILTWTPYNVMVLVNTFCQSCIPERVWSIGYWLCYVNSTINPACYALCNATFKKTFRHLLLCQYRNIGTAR
- test: Rat M4 PAM pERK assay
- condition_summary: CHO cells expressing rM4; with EC20 of acetylcholine (10 nM final)
pEC50: −log10 of the molar value.
The entries below are paired with their reported pEC50.
measured_quantity: pEC50

Cc1cc(=O)n(C)c2c1CN(C(=O)CC1CC1c1ccc(C3COC3)cc1)C2 (single isomer, unassigned) [Compound I-17]: 6.30 to 7.00
Cc1cc(=O)n(C)c2c1CN(C(=O)CC1CC1c1ccc(S(=O)(=O)C(F)(F)F)cc1)C2 (single isomer, unassigned) [Compound I-8]: < 5.70
Cc1cc(=O)n(C)c2c1CN(C(=O)CC1CC1c1ccc(C3COC3)cc1)C2 (single isomer, unassigned) [Compound I-16]: < 5.70

###

- study_system: human M4 receptor (Homo sapiens)
- Sequence (P08173 whole entry): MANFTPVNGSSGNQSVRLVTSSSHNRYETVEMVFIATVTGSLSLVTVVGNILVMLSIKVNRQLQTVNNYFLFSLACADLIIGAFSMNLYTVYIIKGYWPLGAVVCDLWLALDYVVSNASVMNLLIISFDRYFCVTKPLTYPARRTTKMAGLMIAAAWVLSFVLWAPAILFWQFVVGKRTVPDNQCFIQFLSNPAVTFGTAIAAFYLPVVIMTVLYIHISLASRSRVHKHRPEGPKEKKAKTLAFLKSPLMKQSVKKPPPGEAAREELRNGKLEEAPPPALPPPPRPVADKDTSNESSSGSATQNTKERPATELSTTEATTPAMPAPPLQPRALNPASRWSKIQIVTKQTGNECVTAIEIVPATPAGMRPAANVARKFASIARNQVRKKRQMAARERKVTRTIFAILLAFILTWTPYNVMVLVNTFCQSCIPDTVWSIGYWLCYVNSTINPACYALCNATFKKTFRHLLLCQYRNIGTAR
- test: M4 GTPγS PAM assay
- condition_summary: membranes of CHO-K1 cells stably expressing human M4; EC20 acetylcholine 40 nM
pEC50: −log10 of the molar value.
The entries below are paired with their reported pEC50.
measured_quantity: pEC50

Cc1cc(=O)n(C)c2c1CN(C(=O)CC1CC1)C2: 5.70 to 6.30
Cc1cc(=O)n(C)c2c1CN(C(=O)CC1CC1c1ccc(C(F)(F)F)cc1)C2 (single isomer, unassigned) [Compound I-6]: < 5.70
Cc1c2c(n(C)c(=O)c1Cl)CN(C(=O)C[C@@H]1C[C@H]1c1ccc(C(F)(F)F)cc1)C2 (relative stereo): 6.30 to 7.00
Cc1c2c(n(C)c(=O)c1C)CN(C(=O)CC1CC1c1cccc(F)c1F)C2 (stereo not shown): > 7.00

###

- study_system: hM4 receptors (Homo sapiens, UniProt P08173)
- test: Human M4 PAM pERK assay
- condition_summary: CHO cells expressing hM4; with EC20 of acetylcholine (10 nM final)
measured_quantity: EC50

Cc1cc(=O)n(C)c2c1CN(C(=O)CC1CC1)C2: 500 to 2000 nM
Cc1cc(=O)n(C)c2c1CN(C(=O)CC1CC1c1ccc(C3COC3)cc1)C2 (single isomer, unassigned) [Compound I-16]: > 2000 nM
Cc1cc(=O)n(C)c2c1CN(C(=O)CC1CC1c1cccc(C3COC3)c1)C2 (stereo not shown) [Compound I-12]: 100 to 500 nM
Cc1cc(=O)n(C)c2c1CN(C(=O)CC1CC1c1ccnc(C(F)(F)F)c1)C2 (single isomer, unassigned) [Compound I-2]: < 100 nM
Cc1cc(=O)n(C)c2c1CN(C(=O)CC1CC1c1ccc(C(F)(F)F)nc1)C2 (single isomer, unassigned) [Compound I-4]: > 2000 nM
Cc1cc(=O)n(C)c2c1CN(C(=O)CC1CC1c1cccc(C3COC3)c1)C2 (single isomer, unassigned) [Compound I-14]: 100 to 500 nM
Cc1c2c(n(C)c(=O)c1C)CN(C(=O)CC1CC1c1cccc(F)c1F)C2 (stereo not shown): < 100 nM

###

The entries below are paired with their reported pEC50.
- study_system: rM4 receptors (Rattus norvegicus, UniProt P08485)
- Construct: expressed in transfected cells; host or cells: CHO cells
- test: Rat M4 PAM pERK assay
- Format: cell-based
- condition_summary: CHO cells expressing rM4; with EC20 of acetylcholine (10 nM final)
pEC50: −log10 of the molar value.
measured_quantity: pEC50

Cc1cc(=O)n(C)c2c1CN(C(=O)CC1CC1c1ccc(C(F)(F)F)cc1)C2 (single isomer, unassigned) [Compound I-6]: < 5.70
Cc1c2c(n(C)c(=O)c1C)CN(C(=O)CC1CC1c1cc(F)cc(F)c1)C2 (stereo not shown) [Compound I-21]: 6.30 to 7.00
Cc1c2c(n(C)c(=O)c1C)CN(C(=O)C[C@@H]1C[C@H]1c1ccc(C(F)(F)F)cc1)C2 (relative stereo): 6.30 to 7.00
Cc1cc(=O)n(C)c2c1CN(C(=O)CC1CC1c1ccc(S(=O)(=O)C(F)(F)F)cc1)C2 (single isomer, unassigned) [Compound I-9]: 6.30 to 7.00
Cc1cc(=O)n(C)c2c1CN(C(=O)CC1CC1c1ccc(C(F)(F)F)nc1)C2 (single isomer, unassigned) [Compound I-5]: > 7.00
Cc1c2c(n(C)c(=O)c1Cl)CN(C(=O)CC1CC1c1cc(F)cc(F)c1)C2 (single isomer, unassigned) [Compound I-36]: > 7.00
COCCc1ccc(C2CC2CC(=O)N2Cc3c(C)cc(=O)n(C)c3C2)cc1 (stereo not shown): 5.70 to 6.30

###

The entries below are paired with their reported EC50.
- study_system: rM4 receptors (Rattus norvegicus)
- test: Rat M4 PAM pERK assay
- condition_summary: CHO cells expressing rM4; with EC20 of acetylcholine (10 nM final)
measured_quantity: EC50

Cc1c2c(n(C)c(=O)c1C)CN(C(=O)CC1CC1c1cc(F)cc(F)c1)C2 (single isomer, unassigned) [Compound I-23]: < 100 nM
Cc1c2c(n(C)c(=O)c1F)CN(C(=O)CC1CC1c1cc(F)cc(F)c1)C2 (single isomer, unassigned) [Compound I-27]: < 100 nM
Cc1c2c(n(C)c(=O)c1F)CN(C(=O)CC1CC1c1cc(F)cc(F)c1)C2 (single isomer, unassigned) [Compound I-28]: < 100 nM
Cc1c2c(n(C)c(=O)c1F)CN(C(=O)CC1CC1c1ccc(C(F)(F)F)cc1)C2 (single isomer, unassigned) [Compound I-25]: > 2000 nM
Cc1c2c(n(C)c(=O)c1C)CN(C(=O)CC1CC1c1ccc(C(F)(F)F)cc1)C2 (single isomer, unassigned) [Compound I-20]: 100 to 500 nM
Cc1cc(=O)n(C)c2c1CN(C(=O)CC1CC1c1ccc(C(F)(F)F)cc1)C2 (single isomer, unassigned) [Compound I-7]: 100 to 500 nM
Cc1cc(=O)n(C)c2c1CN(C(=O)CC1CC1c1cccc(C3COC3)c1)C2 (stereo not drawn) [Compound I-12]: 500 to 2000 nM
Cc1cc(=O)n(C)c2c1CN(C(=O)CC1CC1)C2 [Compound I-10]: > 2000 nM
Cc1cc(=O)n(C)c2c1CN(C(=O)CC1CC1c1ccnc(C(F)(F)F)c1)C2 (single isomer, unassigned) [Compound I-2]: 500 to 2000 nM
Cc1cc(=O)n(C)c2c1CN(C(=O)CC1CC1c1cccc(C3COC3)c1)C2 (single isomer, unassigned) [Compound I-13]: > 2000 nM
Cc1c2c(n(C)c(=O)c1Cl)CN(C(=O)C[C@@H]1C[C@H]1c1ccc(C(F)(F)F)cc1)C2 (relative stereo) [Compound I-31]: 100 to 500 nM
Cc1cc(=O)n(C)c2c1CN(C(=O)CC1CC1c1ccc(C(F)(F)F)nc1)C2 (stereo not drawn) [Compound I-3]: 500 to 2000 nM
Cc1c2c(n(C)c(=O)c1F)CN(C(=O)CC1CC1c1ccc(C(F)(F)F)cc1)C2 (stereo not drawn) [Compound I-26]: < 100 nM
Cc1cc(=O)n(C)c2c1CN(C(=O)CC1CC1c1cccc(C3COC3)c1)C2 (single isomer, unassigned) [Compound I-14]: 100 to 500 nM
Cc1c2c(n(C)c(=O)c1Cl)CN(C(=O)CC1CC1c1ccc(C(F)(F)F)cc1)C2 (single isomer, unassigned) [Compound I-32]: 500 to 2000 nM
Cc1c2c(n(C)c(=O)c1C)CN(C(=O)CC1CC1c1cccc(F)c1F)C2 (stereo not drawn) [Compound I-24]: 100 to 500 nM
Cc1cc(=O)n(C)c2c1CN(C(=O)CC1CC1c1ccc(C(F)(F)F)nc1)C2 (single isomer, unassigned) [Compound I-4]: > 2000 nM
COc1c2c(n(C)c(=O)c1C)CN(C(=O)CC1CC1c1ccc(C(F)(F)F)cc1)C2 (single isomer, unassigned) [Compound I-29]: 100 to 500 nM

###

The entries below are paired with their reported EC50.
- study_system: human M4 receptor (Homo sapiens)
- Construct: expressed in transfected cells; host or cells: CHO-K1 cells (membrane preparation)
- test: M4 GTPγS PAM assay
- Format: biochemical
- condition_summary: membranes of CHO-K1 cells stably expressing human M4; EC20 acetylcholine 40 nM
measured_quantity: EC50

Cc1cc(=O)n(C)c2c1CN(C(=O)CC1CC1c1ccc(C(F)(F)F)cc1)C2 (single isomer, unassigned) [Compound I-7]: < 100 nM
Cc1c2c(n(C)c(=O)c1C)CN(C(=O)C[C@@H]1C[C@H]1c1ccc(C(F)(F)F)cc1)C2 (relative stereo) [Compound I-18]: 100 to 500 nM
Cc1c2c(n(C)c(=O)c1Cl)CN(C(=O)CC1CC1c1cc(F)cc(F)c1)C2 (stereo not shown) [Compound I-34]: < 100 nM
Cc1c2c(n(C)c(=O)c1Cl)CN(C(=O)CC1CC1c1cc(F)cc(F)c1)C2 (single isomer, unassigned) [Compound I-35]: > 2000 nM
Cc1c2c(n(C)c(=O)c1C)CN(C(=O)CC1CC1c1cc(F)cc(F)c1)C2 (single isomer, unassigned) [Compound I-23]: < 100 nM
Cc1c2c(n(C)c(=O)c1Cl)CN(C(=O)CC1CC1c1ccc(C(F)(F)F)cc1)C2 (single isomer, unassigned) [Compound I-32]: 100 to 500 nM
Cc1c2c(n(C)c(=O)c1F)CN(C(=O)CC1CC1c1cc(F)cc(F)c1)C2 (single isomer, unassigned) [Compound I-27]: < 100 nM
